Parameter 'readout' = MIC; parameter 'system' = Septoria tritici (ATCC 26517).

1) N#Cc1ccc(COc2ccc(C(F)(F)C(O)(Cn3cnnn3)c3ccc(F)cc3F)nc2)cc1 (centres unmarked) = ≤ 0.5 µg/mL
2) COc1cccc(Oc2ccc(C(F)(F)C(O)(Cn3cnnn3)c3ccc(F)cc3F)nc2)c1 (centres unmarked) = ≤ 0.5 µg/mL
3) N#Cc1ccc(COc2ccc(C(F)(F)C(O)(Cn3ncnn3)c3ccc(Cl)cc3F)nc2)cc1 (centres unmarked) = 1.5 to 4 µg/mL
4) N#Cc1ccc(Oc2ccc(C(F)(F)C(O)(Cn3ncnn3)c3ccc(Cl)cc3F)nc2)cc1F (centres unmarked) = > 4 µg/mL
5) N#Cc1ccc(F)c(COc2ccc(C(F)(F)C(O)(Cn3cnnn3)c3ccc(F)cc3F)nc2)c1 (centres unmarked) = ≤ 0.5 µg/mL
6) N#Cc1ccc(COc2ccc(C(F)(F)C(O)(Cn3ncnn3)c3ccc(F)cc3F)nc2)c(F)c1 (centres unmarked) = 1.5 to 4 µg/mL
7) N#Cc1cccc(COc2ccc(C(F)(F)C(O)(Cn3cnnn3)c3ccc(F)cc3F)nc2)c1F (centres unmarked) = ≤ 0.5 µg/mL
8) OC(Cn1cnnn1)(c1ccc(F)cc1F)C(F)(F)c1ccc(OCc2ccccn2)cn1 (centres unmarked) = 0.5 to 1.5 µg/mL
9) O=Cc1ccc(Oc2ccc(C(F)(F)C(O)(Cn3cnnn3)c3ccc(F)cc3F)nc2)nc1 (centres unmarked) = > 4 µg/mL
10) OC(Cn1cncn1)(c1ccc(F)cc1F)C(F)(F)c1ccc(OCc2cccc(F)c2F)cn1 (centres unmarked) = ≤ 0.5 µg/mL

Please look up its MIC: N#Cc1ccc(COc2ccc(C(F)(F)C(O)(Cn3ncnn3)c3ccc(F)cc3F)nc2)s1 (centres unmarked) > 4 µg/mL

Entry OC(Cn1cnnn1)(c1ccc(F)cc1F)C(F)(F)c1ccc(OCc2ccc(C(F)(F)F)cc2F)cn1 (centres unmarked) : reported MIC = ? ≤ 0.5 µg/mL

If you can, please state the reported MIC value of CC#CCOc1ccc(C(F)(F)C(O)(Cn2ncnn2)c2ccc(F)cc2F)nc1 (centres unmarked) . > 4 µg/mL

Any idea what MIC was measured for OC(Cn1cnnn1)(c1ccc(F)cc1F)C(F)(F)c1ccc(OCC(F)(F)c2ccccc2)cn1 (centres unmarked) ? ≤ 0.5 µg/mL

Consider the compound shown here: OC(Cn1cnnn1)(c1ccc(F)cc1F)C(F)(F)c1ccc(OCc2ccc(Cl)cn2)cn1 (centres unmarked) What is its recorded MIC? ≤ 0.5 µg/mL

Need MIC of OC(Cn1cnnn1)(c1ccc(F)cc1F)C(F)(F)c1ccc(OCc2ccc(C(F)(F)F)cn2)cn1 (centres unmarked) , thanks. ≤ 0.5 µg/mL

Dear colleague, I am looking for the recorded MIC of the following compound: OC(Cn1cnnn1)(c1ccc(F)cc1F)C(F)(F)c1ccc(Oc2nc3ccc(Cl)cc3s2)cn1 (centres unmarked) ≤ 0.5 µg/mL

Sample OC(Cn1cnnn1)(c1ccc(F)cc1F)C(F)(F)c1cc(OCc2ccc(F)cc2F)ccn1 (centres unmarked) — what was its MIC? 0.5 to 1.5 µg/mL
